test: Hemolysis assay
Format: cell-based, horse
conditionsUsed: horse, erythrocytes (2% suspension); 100 μM
Residues, ends and D or L forms follow the SMILES beside them.

{"compound": "CC[C@H](C)[C@H](NC(=O)[C@H](CCCNC(=N)N)NC(=O)[C@@H]1CCCN1C(=O)[C@H](CC(C)C)NC(=O)[C@@H](N)Cc1ccccc1)C(=O)N[C@@H](CC(C)C)C(=O)N[C@@H](CCCNC(=N)N)C(=O)N[C@@H](CCCCN)C(=O)N[C@H](C(=O)N[C@H](C(=O)N[C@@H](CCCNC(=N)N)C(=O)N[C@@H](C)C(=O)N[C@@H](CC(C)C)C(N)=O)C(C)C)[C@@H](C)CC [Crabrolin-TR, FLPRILRKIVRAL-NH2] (H-FLPRILRKIVRAL-NH2)", "hemolysis at 2 h, 100 µM": "~50%"}

###

Test system: MRSA (NCTC 12493)
test: Antimicrobial susceptibility assay (MIC/MBC)
Type: cell-based, methicillin-resistant Staphylococcus aureus
conditionsUsed: MHB, 37 °C, 20 h
Residues, ends and D or L forms follow the SMILES beside them.
Here, each record is paired with measured MIC data.

{"compound": "CC[C@H](C)[C@H](NC(=O)[C@H](CCCNC(=N)N)NC(=O)[C@@H]1CCCN1C(=O)[C@H](CC(C)C)NC(=O)[C@@H](N)CCCNC(=N)N)C(=O)N[C@@H](CC(C)C)C(=O)N[C@@H](CCCNC(=N)N)C(=O)N[C@@H](CCCCN)C(=O)N[C@H](C(=O)N[C@H](C(=O)N[C@@H](CCCNC(=N)N)C(=O)N[C@@H](C)C(=O)N[C@@H](CC(C)C)C(N)=O)C(C)C)[C@@H](C)CC [Crabrolin-FR, RLPRILRKIVRAL-NH2] (H-RLPRILRKIVRAL-NH2)", "unitLabel": "µM", "qualifier": "=", "MIC": 4}
{"compound": "CC[C@H](C)[C@H](NC(=O)[C@H](CC(C)C)NC(=O)[C@@H]1CCCN1C(=O)[C@H](CC(C)C)NC(=O)[C@@H](N)Cc1ccccc1)C(=O)N[C@@H](CC(C)C)C(=O)N[C@@H](CCCNC(=N)N)C(=O)N[C@@H](CCCCN)C(=O)N[C@H](C(=O)N[C@H](C(=O)N[C@H](C(=O)N[C@@H](C)C(=O)N[C@@H](CC(C)C)C(N)=O)[C@@H](C)O)C(C)C)[C@@H](C)CC [Crabrolin, FLPLILRKIVTAL-NH2] (H-FLPLILRKIVTAL-NH2)", "unitLabel": "µM", "qualifier": "=", "MIC": 4}
{"compound": "CC[C@H](C)[C@H](NC(=O)[C@H](CC(C)C)NC(=O)[C@@H]1CCCN1C(=O)[C@H](CC(C)C)NC(=O)[C@@H](N)Cc1ccccc1)C(=O)N[C@@H](CC(C)C)C(=O)N[C@@H](CCCNC(=N)N)C(=O)N[C@@H](CCCCN)C(=O)N[C@@H](CCCNC(=N)N)C(=O)N[C@H](C(=O)N[C@H](C(=O)N[C@@H](C)C(=O)N[C@@H](CC(C)C)C(N)=O)[C@@H](C)O)C(C)C [Crabrolin-9R, FLPLILRKRVTAL-NH2] (H-FLPLILRKRVTAL-NH2)", "unitLabel": "µM", "qualifier": ">", "MIC": 512}

Provenance of the data: paper PMC10572522
